Test system: Escherichia coli ATCC BAA-2469
Assay: percent growth inhibition of drug alone vs DMSO control; higher = more growth inhibition
Settings: antibiotic (0.125x MIC): none (0.1% DMSO); 7 µM
Structures can show the parent of a compound that is named as a salt.
quantity_measured: percent growth inhibition of drug alone (%)
Numbers only; they are read as %.

Please review the entries below; each comes with its answer.
molecule | percent growth inhibition of drug alone (%)
Cc1cc(N)c2ccccc2[n+]1CCCCCCCCCC[n+]1c(C)cc(N)c2ccccc21 [Dequalinium dichloride] | 2.01
CCOC(=O)c1ccc(OC(=O)CCCCCNC(=N)N)cc1 [Gabexate mesilate] | 3.5

Input: Dear colleague, please send me the reported percent growth inhibition of drug alone for CCCNC(C)(C)COC(=O)c1ccccc1 [Meprylcaine hydrochloride] when you can.
Output: 0.029

Input: Supply measured percent growth inhibition of drug alone of Nc1ccn([C@@H]2O[C@H](CO)[C@@H](O)C2(F)F)c(=O)n1 in your reply.
Output: 15.3

Input: Return reported percent growth inhibition of drug alone. Input molecule: N[C@@H]1CCCCN(c2c(F)cc3c(=O)c(C(=O)O)cn(C4CC4)c3c2Cl)C1 [Besifloxacin hydrochloride]
Output: 3.86

* * *

Items are presented alongside their recorded percent growth inhibition of drug alone.
Tested on: Klebsiella pneumoniae KPC-119
Experiment: percent growth inhibition of drug alone vs DMSO control; higher = more growth inhibition
Details: antibiotic (0.125x MIC): none (0.1% DMSO); 20 µM
Counter-ions that a name gives are not always drawn.

Take a look at these entries with their results.
compound | reported_result
CC[C@H]1OC(=O)[C@H](C)[C@@H](O[C@H]2C[C@@](C)(OC)[C@@H](O)[C@H](C)O2)[C@H](C)[C@@H](O[C@@H]2O[C@H](C)C[C@H](N(C)C)[C@H]2O)[C@](C)(O)C[C@@H](C)CN(C)[C@H](C)[C@@H](O)[C@]1(C)O | 21.1%
CC(C)NCC(O)c1ccc(O)c(O)c1 (single isomer, unassigned; (-)) [(-)-Isoproterenol hydrochloride] | 1.39%
Oc1c(Cl)cc(Cl)c(Cl)c1Cc1c(O)c(Cl)cc(Cl)c1Cl | 18.8%

Input: Report its percent growth inhibition of drug alone with Klebsiella pneumoniae KPC-119 as the test system: C=C1c2c(Cl)ccc(O)c2C(=O)C2=C(O)[C@]3(O)C(=O)C(C(N)=O)=C(O)[C@@H](N(C)C)[C@@H]3[C@@H](O)[C@H]12.O=C(O)c1cc(S(=O)(=O)O)ccc1O [Meclocycline sulfosalicylate]
Output: 7.24%

Input: Fill in percent growth inhibition of drug alone for O=C(O)c1cn(-c2ccc(F)cc2)c2cc(N3CCNCC3)c(F)cc2c1=O tested with Klebsiella pneumoniae KPC-119.
Output: 98.9%

Input: Name the recorded percent growth inhibition of drug alone of CCN1CCCC1CNC(=O)c1cc(S(N)(=O)=O)ccc1OC (centres undefined) [Sulpiride] , assay system Klebsiella pneumoniae KPC-119.
Output: -3.73%

Input: Look up and report percent growth inhibition of drug alone, with Klebsiella pneumoniae KPC-119 as system, for COc1cc(C)nc(-n2nc(C)cc2OC)n1 [Epirizole]
Output: -0.885%

Input: Find the measured percent growth inhibition of drug alone of CN(C)c1ccc(O)c2c1C[C@H]1C[C@H]3[C@H](N(C)C)C(O)=C(C(N)=O)C(=O)[C@@]3(O)C(O)=C1C2=O [Minocycline hydrochloride] with Klebsiella pneumoniae KPC-119 as test system.
Output: 52.8%

Input: State recorded percent growth inhibition of drug alone with Klebsiella pneumoniae KPC-119, entry C[C@H]1c2cccc(O)c2C(=O)C2=C(O)[C@]3(O)C(=O)C(C(N)=O)=C(O)[C@@H](N(C)C)[C@@H]3[C@@H](O)[C@@H]21 [Doxycycline hydrochloride] , no comment.
Output: 35.7%

Input: Report percent growth inhibition of drug alone on Klebsiella pneumoniae KPC-119 for this entry: O=C1OCCN1/N=C/c1ccc([N+](=O)[O-])o1
Output: 39.8%

Input: Give measured percent growth inhibition of drug alone for CN(C)CCOC(c1ccc(Cl)cc1)c1ccccn1 (centres undefined) [Carbinoxamine maleate salt] (Klebsiella pneumoniae KPC-119).
Output: -3.08%

Input: Report measured percent growth inhibition of drug alone on Klebsiella pneumoniae KPC-119; entry: O=c1[nH]c(=O)n([C@H]2C[C@H](O)[C@@H](CO)O2)cc1F
Output: 92.8%

Input: Tell me its percent growth inhibition of drug alone on Klebsiella pneumoniae KPC-119: OC(c1cc(C(F)(F)F)nc2c(C(F)(F)F)cccc12)C1CCCCN1 (centres undefined) [Mefloquine hydrochloride]
Output: -2.15%

Input: Provide measured percent growth inhibition of drug alone on Klebsiella pneumoniae KPC-119 for CC1CCc2c(N3CCC(O)CC3)c(F)cc3c(=O)c(C(=O)O)cn1c23 (centres undefined) please.
Output: 36%

These entries and their values trace back to the supplement of paper PMC6658780.
